Tested on: HS 578T (breast cancer)
test_name: NCI-60 SRB cytotoxicity screen
Format: cell-based
conditions_used: Homo sapiens, single dose 10 μM, read-out: growth inhibition (GI%)
What inhibition at 10 µM was measured for each of the following?
Report only the number, with the unit % understood.

Inquiry: I would be grateful if you could share the reported inhibition at 10 µM for CCc1cccc2cc(-c3cc(-c4ccc(OC)cc4)[nH]c(=S)c3C#N)c(Cl)nc12 [Compound 5a] .
Reply text: 19.8

Inquiry: Quick one: inhibition at 10 µM for CCc1cccc2cc(-c3cc(-c4ccc(OC)c(OC)c4)[nH]c(=S)c3C#N)c(Cl)nc12 [Compound 5b] ?
Reply text: 23.1
